Source listed as ChEMBL document CHEMBL1121573.

- Tested on: Canis familiaris
- PROCEDURE SUMMARY: Compound administered intravenously was evaluated for salidiuretic activity measured as sodium ion excretion in Dog
- Assay type: ADME, organism-based, Canis lupus familiaris, Urine
- Design: unit not given beside the values
- ASSAY SETUP: in vivo, iv
We begin with a simple list: items and their reported Diuretic activity.

Please review the following examples before continuing.
{"SMILES STR": "Cc1c(Cl)cc(Cl)c(O)c1CN.Cl", "Diuretic activity": "> 900"}
{"SMILES STR": "Cc1c(Cl)c(C)c(CN)c(O)c1Br.Cl", "Diuretic activity": "> 900"}
{"SMILES STR": "Br.Cc1c(C)c(Cl)c(Cl)c(CN)c1O", "Diuretic activity": "> 900"}

Here is the next item to consider.
Value lookup for Diuretic activity; key = CC(C)(C)c1cc(I)c(O)c(CN)c1.Cl
6

* * *

- Tested on: Rattus norvegicus
- PROCEDURE SUMMARY: Compound administered orally at a dose of 1 mg/kg was evaluated for salidiuretic activity measured as sodium ion excretion in Rat
- ASSAY SETUP: in vivo, po
We begin with a simple list: items and their reported Diuretic activity.

Please review the following examples before continuing.
{"COMPOUND": "CC(C)(C)c1cc(Br)c(O)c(CN)c1.Cl", "QUANTITY MEASURED": "Diuretic activity", "READING": 2.1}
{"COMPOUND": "CCc1c(Cl)c(C)c(CN)c(O)c1Cl.Cl", "QUANTITY MEASURED": "Diuretic activity", "READING": 0.7}
{"COMPOUND": "CSc1cc(C(C)(C)C)cc(CN)c1O.Cl", "QUANTITY MEASURED": "Diuretic activity", "READING": 0.7}
{"COMPOUND": "Br.Cc1c(C)c(CN)c(O)c(Cl)c1Cl", "QUANTITY MEASURED": "Diuretic activity", "READING": 0.7}
{"COMPOUND": "CC(C)c1cc(I)c(O)c(CN)c1.Cl", "QUANTITY MEASURED": "Diuretic activity", "READING": 0.7}

Value lookup for Diuretic activity; key = CC(C)(C)c1cc(Cl)c(O)c(CN)c1.Cl
2.1

Value lookup for Diuretic activity; key = COc1c(Cl)c(OC)c(CN)c(O)c1Br.Cl
0.7

Value lookup for Diuretic activity; key = COc1c(Cl)c(O)c(CN)c(OC)c1Cl.Cl
0.7

Value lookup for Diuretic activity; key = CC(C)c1cc(Cl)c(O)c(CN)c1.Cl
0.7

Value lookup for Diuretic activity; key = CCC(C)c1cc(Cl)c(O)c(CN)c1.Cl (stereo unspecified)
0.7

Value lookup for Diuretic activity; key = Cc1cc(C)c(CN)c(O)c1.Cl
1

* * *

- System: Rattus norvegicus
- PROCEDURE SUMMARY: Compound administered orally at a dose of 81 mg/kg was evaluated for salidiuretic activity measured as sodium ion excretion in Rat
- Format: ADME, organism-based, Urine
- Design: dose 81 mg/kg, route oral; unit not given beside the values
- ASSAY SETUP: in vivo, po
We begin with a simple list: items and their reported Diuretic activity.
Quick one: just the number, no unit, thanks!

Please review the following examples before continuing.
{"SMILES STR": "NCc1cc(Cl)ccc1O", "Diuretic activity": 1.5}
{"SMILES STR": "NCc1c(O)ccc(Cl)c1Cl", "Diuretic activity": 1.5}
{"SMILES STR": "CC(C)Cc1cc(I)c(O)c(CN)c1.Cl", "Diuretic activity": 1.5}
{"SMILES STR": "CCSc1cc(C(C)(C)C)cc(CN)c1O.Cl", "Diuretic activity": 1.5}

Identify the measured Diuretic activity of CC(C)(C)c1ccc(O)c(CN)c1.Cl for Rattus norvegicus.
1.5

Identify the measured Diuretic activity of Cc1c(C)c(C)c(CN)c(O)c1C.Cl for Rattus norvegicus.
2.9

Identify the measured Diuretic activity of Cl.NCc1cc(Cl)cc(I)c1O for Rattus norvegicus.
2.4
